Source: ChEMBL document CHEMBL3259650

# Tested on: Shigella sonnei
# EXPERIMENT_DESCRIPTION: Antibacterial activity against Shigella sonnei ATCC 15305 assessed as growth inhibition after 24 hrs by micro dilution method
# Assay type: functional
# MEASUREMENT_SETUP: ATCC 15305, 24 h
Each entry below lists one item and its recorded MIC value.

Example cases with answers are listed next.
> print(dat)
                                   molecule  property  reported.measurement
1  O=C1Nc2ccc(Cl)cc2C(O)C1(Cc1ccc(Cl)cc1)Cc1ccc(Cl)cc1 (stereo not given)       MIC             3.12 mg/L
2  O=C1Nc2ccccc2C(O)C1(Cc1ccccc1)Cc1ccccc1 (stereo not given)       MIC               50 mg/L
3  O=C1Nc2ccccc2C(O)C1(Cc1ccc(Cl)cc1)Cc1ccc(Cl)cc1 (stereo not given)       MIC             6.25 mg/L

Would you kindly share the measured MIC for CCOC(=O)CN1C(=O)C(Cc2ccccc2)(Cc2ccccc2)C(O)c2ccccc21 (stereo not given) ?
> 200 mg/L

Which measured MIC value corresponds to O=C1N(Cc2ccccc2)c2ccccc2C(O)C1(Cc1ccccc1)Cc1ccccc1 (stereo not given) ?
200 mg/L

---

The reader will find reported MIC values listed item by item below.
# System: Staphylococcus aureus
# EXPERIMENT_DESCRIPTION: Antibacterial activity against Staphylococcus aureus ATCC 6538p assessed as growth inhibition after 24 hrs by micro dilution method
# Type: functional
Unit µg/mL implied. Number only.

MOLECULE	TARGET_UNDER_TEST	UNIT_LABEL	MIC
C[C@H]1COc2c(N3CCN(C)CC3)c(F)cc3c(=O)c(C(=O)O)cn1c23.C[C@H]1COc2c(N3CCN(C)CC3)c(F)cc3c(=O)c(C(=O)O)cn1c23.O [LEVOFLOXACIN]	Staphylococcus aureus	µg/mL	3.12
O=C1Nc2ccccc2C(O)C1(Cc1ccccc1)Cc1ccccc1 (configuration not stated)	Staphylococcus aureus	µg/mL	50
CCN1C(=O)C(Cc2ccc(Cl)cc2)(Cc2ccc(Cl)cc2)C(O)c2cc(Cl)ccc21 (configuration not stated)	Staphylococcus aureus	µg/mL	6.25
O=C1Nc2ccccc2C(O)C1(Cc1ccc(Cl)cc1)Cc1ccc(Cl)cc1 (configuration not stated)	Staphylococcus aureus	µg/mL	6.25
CCN1C(=O)C(Cc2ccccc2)(Cc2ccccc2)C(O)c2ccccc21 (configuration not stated)	Staphylococcus aureus	µg/mL	100
O=C1Nc2ccccc2C(O)C1(Cc1ccccc1Cl)Cc1ccccc1Cl (configuration not stated)	Staphylococcus aureus	µg/mL	12.5

I'd like to know its MIC. The molecule in question is O=C1Nc2ccc(Cl)cc2C(O)C1(Cc1ccc(Cl)cc1)Cc1ccc(Cl)cc1 (configuration not stated)
3.12

If you can, please state the reported MIC value of O=C1Nc2ccc(Cl)cc2C(O)C1(Cc1ccccc1)Cc1ccccc1 (configuration not stated) .
25

Quick check: MIC of O=C1N(Cc2ccccc2)c2ccccc2C(O)C1(Cc1ccccc1)Cc1ccccc1 (configuration not stated) ?
100

# lookup: MIC of COc1ccc(CC2(Cc3ccc(OC)cc3)C(=O)Nc3ccccc3C2O)cc1 (configuration not stated)
100

Form field: reported MIC of O=C1N(Cc2ccc(Cl)cc2)c2ccc(Cl)cc2C(O)C1(Cc1ccc(Cl)cc1)Cc1ccc(Cl)cc1 (configuration not stated)
50

If you can, please state the reported MIC value of O=C1Nc2ccc(F)cc2C(O)C1(Cc1ccccc1)Cc1ccccc1 (configuration not stated) .
50
